endpointName: melting point

Look over these answered cases.
Tell me the measured melting point of O=c1oc2cc(O)c(/N=C/c3cccc(Br)c3)cc2s1 , please.
179 to 180 °C

Tell me the measured melting point of O=c1oc2cc(O)c(/N=C/c3ccc(Cl)cc3)cc2s1 , please.
210 to 212 °C

Tell me the measured melting point of O=c1oc2cc(O)c(/N=C/c3ccc(Cl)cc3Cl)cc2s1 , please.
221 to 223 °C

Tell me the measured melting point of N#Cc1ccc(/C=N/c2cc3sc(=O)oc3cc2O)cc1 , please.
261 to 263 °C

Tell me the measured melting point of O=c1oc2cc(O)c(/N=C/c3ccc(Br)cc3)cc2s1 , please.
211 to 213 °C

New cases:
Tell me the measured melting point of O=c1oc2cc(O)c(/N=C/c3cccc([N+](=O)[O-])c3)cc2s1 , please.
220 to 222 °C

Tell me the measured melting point of O=c1oc2cc(O)c(/N=C/c3cc([N+](=O)[O-])ccc3O)cc2s1 , please.
293 to 294 °C

Tell me the measured melting point of O=c1oc2cc(O)c(/N=C/c3ccc(O)cc3O)cc2s1 , please.
284 to 285 °C (dec.)

Tell me the measured melting point of O=c1oc2cc(O)c(/N=C/c3cc(O)ccc3O)cc2s1 , please.
261 to 263 °C

Tell me the measured melting point of CN(C)c1ccc(/C=N/c2cc3sc(=O)oc3cc2O)cc1 , please.
199 to 201 °C

Tell me the measured melting point of O=c1oc2cc(O)c(/N=C/c3ccc4c(c3)OCO4)cc2s1 , please.
232 to 233 °C

Tell me the measured melting point of O=c1oc2cc(O)c(/N=C/c3ccccc3)cc2s1 , please.
232 to 233 °C

Tell me the measured melting point of COc1ccc(/C=N/c2cc3sc(=O)oc3cc2O)cc1 , please.
177 to 178 °C

Tell me the measured melting point of Nc1cc2sc(=O)oc2cc1O , please.
194 to 195 °C

Tell me the measured melting point of O=c1oc2cc(O)c(/N=C/c3cc(Br)ccc3O)cc2s1 , please.
250 to 252 °C

Tell me the measured melting point of O=c1oc2cc(O)c(/N=C/c3cccc(O)c3O)cc2s1 , please.
244 to 246 °C

Tell me the measured melting point of O=c1oc2cc(O)c(/N=C/c3ccc(-c4ccccn4)cc3)cc2s1 , please.
201 to 203 °C

Tell me the measured melting point of O=c1oc2cc(O)c(/N=C/c3ccc([N+](=O)[O-])cc3)cc2s1 , please.
223 to 224 °C

Tell me the measured melting point of O=c1oc2cc(O)c(/N=C/c3ccccc3O)cc2s1 , please.
252 to 253 °C

Tell me the measured melting point of O=c1oc2cc(O)c([N+](=O)[O-])cc2s1 , please.
180 to 182 °C

###

// reported pIC50 for each item listed
Test system: ACP-03
Assay: MTT cytotoxicity assay, ACP-03 gastric cancer cells
Assay type: cell-based, human
Details: Homo sapiens, 72 h, IC50 with 95% confidence interval, triplicate, 72 h incubation
pIC50: −log10 of the molar value.

Look over these answered cases.
API: value(readout=pIC50, system=ACP-03) for record O=c1oc2cc(O)c(/N=C/c3ccc(Cl)cc3Cl)cc2s1
< 5.00

API: value(readout=pIC50, system=ACP-03) for record O=c1oc2cc(O)c(/N=C/c3ccc(Br)cc3)cc2s1
< 5.00

API: value(readout=pIC50, system=ACP-03) for record N#Cc1ccc(/C=N/c2cc3sc(=O)oc3cc2O)cc1
< 5.00

API: value(readout=pIC50, system=ACP-03) for record Nc1cc2sc(=O)oc2cc1O
< 5.00

API: value(readout=pIC50, system=ACP-03) for record O=c1oc2cc(O)c(/N=C/c3ccccc3O)cc2s1
< 5.00

New cases:
API: value(readout=pIC50, system=ACP-03) for record O=c1oc2cc(O)c(/N=C/c3ccccc3)cc2s1
< 5.00

API: value(readout=pIC50, system=ACP-03) for record O=c1oc2cc(O)c(/N=C/c3cccc([N+](=O)[O-])c3)cc2s1
< 5.00

API: value(readout=pIC50, system=ACP-03) for record O=c1oc2cc(O)c(/N=C/c3cccc(Br)c3)cc2s1
< 5.00

API: value(readout=pIC50, system=ACP-03) for record O=c1oc2cc(O)c(/N=C/c3cccc(O)c3O)cc2s1
< 5.00

API: value(readout=pIC50, system=ACP-03) for record O=c1oc2cc(O)c(/N=C/c3cc(Br)ccc3O)cc2s1
< 5.00

API: value(readout=pIC50, system=ACP-03) for record COc1ccc(/C=N/c2cc3sc(=O)oc3cc2O)cc1
< 5.00

API: value(readout=pIC50, system=ACP-03) for record CN(C)c1ccc(/C=N/c2cc3sc(=O)oc3cc2O)cc1
< 5.00

API: value(readout=pIC50, system=ACP-03) for record O=c1oc2cc(O)c(/N=C/c3cc(O)ccc3O)cc2s1
< 5.00

API: value(readout=pIC50, system=ACP-03) for record O=c1oc2cc(O)c(/N=C/c3ccc(-c4ccccn4)cc3)cc2s1
< 5.00

API: value(readout=pIC50, system=ACP-03) for record O=c1oc2cc(O)c([N+](=O)[O-])cc2s1
< 5.00

API: value(readout=pIC50, system=ACP-03) for record COc1cccc2c1C(=O)c1c(O)c3c(c(O)c1C2=O)C[C@@](O)(C(=O)CO)C[C@@H]3O[C@H]1C[C@H](N)[C@H](O)[C@H](C)O1 [Dox, Doxorubicin, reference compound]
6.56

API: value(readout=pIC50, system=ACP-03) for record O=c1oc2cc(O)c(/N=C/c3ccc4c(c3)OCO4)cc2s1
< 5.00

API: value(readout=pIC50, system=ACP-03) for record O=c1oc2cc(O)c(/N=C/c3ccc(O)cc3O)cc2s1
< 5.00

API: value(readout=pIC50, system=ACP-03) for record O=c1oc2cc(O)c(/N=C/c3cc([N+](=O)[O-])ccc3O)cc2s1
< 5.00

API: value(readout=pIC50, system=ACP-03) for record O=c1oc2cc(O)c(/N=C/c3ccc([N+](=O)[O-])cc3)cc2s1
> 5.30

API: value(readout=pIC50, system=ACP-03) for record O=c1oc2cc(O)c(/N=C/c3ccc(Cl)cc3)cc2s1
< 5.00
